This listing pairs molecules with measured viability at 1000 molar ratio.
Assay: Cytotoxicity against human Raji cells assessed as cell viability at 1000 molar ratio by trypan blue staining method
Assay type: cell-based
Conditions: read-out: Activity

COc1cc(/C=C/C(O)=C/C(O)/C=C/c2ccc(OC(=O)CCC(=O)O[C@@H]3CC[C@]4(C)[C@H]5CC[C@H]6[C@@](C)(CC[C@H]7C(C)(C)[C@@H](OC)CC[C@@]76C)CC5=CC[C@H]4C3(C)C)c(OC)c2)ccc1OC(=O)CCC(=O)O[C@@H]1CC[C@]2(C)[C@H]3CC[C@H]4[C@@](C)(CC[C@H]5C(C)(C)[C@@H](OC)CC[C@@]54C)CC3=CC[C@H]2C1(C)C (some centres not stated): 60%

Turning now to a further record.
Please give measured viability at 1000 molar ratio of the following entry: CO[C@H]1CC[C@@]2(C)[C@@H](CC[C@@]3(C)CC4=CC[C@H]5C(C)(C)[C@H](OC(=O)Nc6ccccc6)CC[C@]5(C)[C@H]4CC[C@@H]32)C1(C)C
60%

====

Parameter: IC50. Scope: all listed entries.
Experiment: Inhibition of TPA-induced EBV-early antigen activation in human Raji cells assessed as EA activation after 48 hrs
Type: cell-based, human gammaherpesvirus 4
Give the quantity in molar ratio, number only.

CO[C@H]1CC[C@@]2(C)[C@@H](CC[C@@]3(C)CC4=CC[C@H]5C(C)(C)[C@H](OC(=O)NS(=O)(=O)c6ccc(C)cc6)CC[C@]5(C)[C@H]4CC[C@@H]32)C1(C)C: 461

Please report IC50 for the following compound: CO[C@H]1CC[C@@]2(C)[C@@H](CC[C@@]3(C)CC4=CC[C@H]5C(C)(C)[C@H](OC(=O)CCC(=O)Oc6ccc(-c7oc8cc(O)cc(O)c8c(=O)c7O)cc6O)CC[C@]5(C)[C@H]4CC[C@@H]32)C1(C)C
330

In one line, give reported IC50 of the entry CO[C@@H]1CC[C@@]2(C)[C@@H](CC[C@@]3(C)CC4=CC[C@H]5C(C)(C)[C@H](OC(=O)CCC(=O)Oc6ccc(-c7oc8cc(O)cc(O)c8c(=O)c7O)cc6O)CC[C@]5(C)[C@H]4CC[C@@H]32)C1(C)C .
350

Provide measured IC50 value, entry: CO[C@H]1CC[C@@]2(C)[C@@H](CC[C@@]3(C)CC4=CC[C@H]5C(C)(C)[C@H](OC(N)=O)CC[C@]5(C)[C@H]4CC[C@@H]32)C1(C)C
470

====

Assay: Inhibition of TPA-induced EBV-early antigen activation in human Raji cells assessed as EA activation after 48 hrs
Assay type: cell-based, human gammaherpesvirus 4
Reported values of IC50 for individual entries
Provide the reading as a plain figure in molar ratio.

Determine from records and report IC50 for CO[C@H]1CC[C@@]2(C)[C@@H](CC[C@@]3(C)CC4=CC[C@H]5C(C)(C)[C@H](OC(=O)Nc6ccccc6Cl)CC[C@]5(C)[C@H]4CC[C@@H]32)C1(C)C
468

Determine its reported IC50: COc1cc(/C=C/C(O)/C=C(O)/C=C/c2ccc(OC(=O)CCC(=O)O[C@@H]3CC[C@]4(C)[C@H]5CC[C@H]6[C@@](C)(CC[C@H]7C(C)(C)[C@H](OC)CC[C@@]76C)CC5=CC[C@H]4C3(C)C)c(OC)c2)ccc1O (some centres undefined)
393

Please indicate IC50 recorded for COc1cc(/C=C/C(O)=C/C(O)/C=C/c2ccc(OC(=O)CC(=O)O[C@@H]3CC[C@]4(C)[C@H]5CC[C@H]6[C@@](C)(CC[C@H]7C(C)(C)[C@H](OC)CC[C@@]76C)CC5=CC[C@H]4C3(C)C)c(OC)c2)ccc1OC(=O)CC(=O)O[C@@H]1CC[C@]2(C)[C@H]3CC[C@H]4[C@@](C)(CC[C@H]5C(C)(C)[C@H](OC)CC[C@@]54C)CC3=CC[C@H]2C1(C)C (some centres undefined)
335

Consider the compound CO[C@H]1CC[C@@]2(C)[C@@H](CC[C@@]3(C)CC4=CC[C@H]5C(C)(C)[C@H](OC(=O)CCC(=O)Oc6coc(CO)cc6=O)CC[C@]5(C)[C@H]4CC[C@@H]32)C1(C)C . State its measured IC50.
371
